Molecular target: T1, ligand-binding domain of the human nAChR α9 subunit (human, UniProt Q9UGM1 23-238)
T1 construct: also called α9 LBD; human α9 LBD
T1 sequence (Q9UGM1 23-238): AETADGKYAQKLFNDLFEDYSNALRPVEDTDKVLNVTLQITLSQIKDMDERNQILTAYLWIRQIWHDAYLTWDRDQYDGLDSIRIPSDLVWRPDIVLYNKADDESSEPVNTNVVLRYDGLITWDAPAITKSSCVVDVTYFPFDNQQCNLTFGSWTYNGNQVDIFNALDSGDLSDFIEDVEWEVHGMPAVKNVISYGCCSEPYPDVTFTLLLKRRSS
Experiment: radioligand binding
Settings: both partners purified
Positions of bridges follow the written chain, without caps; N, C: chain ends. No end group written: not given here.

| binder | IC50, µM |
| --- | --- |
| CKMVRHQRSPYEVVRRMC (disulfide 1-18) | 41.7 |
| CTTRTYYTPTRMKVSKC (not fully specified (bridges); cysteine pairing not given here, also called Lynx1 fragment (1); peptide 1) | 41.7 |
| TTRTYYTPTRMKVSK (also called Lynx1 linear fragment (2); peptide 2) [Lynx1 linear (2), synthetic 15-membered loop II fragment of human Lynx1] | 40.7 |
